Ref: patent US20090011988A1

Target: T1, human IGFBP-1 (human, UniProt P08833 26-259)
T1 sequence (looked up): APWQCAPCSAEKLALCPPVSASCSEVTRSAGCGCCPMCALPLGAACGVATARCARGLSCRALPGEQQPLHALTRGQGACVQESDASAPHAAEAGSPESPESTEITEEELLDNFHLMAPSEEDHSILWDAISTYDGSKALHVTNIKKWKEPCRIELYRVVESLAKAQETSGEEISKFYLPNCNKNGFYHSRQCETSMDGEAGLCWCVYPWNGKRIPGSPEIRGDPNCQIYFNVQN
Assay: BIAcore inhibition assay
Method: Peptides were assayed in a BIAcore™ assay as described in WO 98/45427, supra.
Positions of bridges follow the written chain, without caps; N, C: chain ends. No end group written: not given here.
Value Type: fold potency reduction, IC50 (BP1-01)/IC50 (mut)

Study these solved cases before continuing.
Lab note: Ac-RPLEWLAEKYFE (linker 4-12 via 1,5‑diaminopentane) [(i+8)B] gave fold potency reduction, IC50 (BP1-01)/IC50 (mut) of 7.7

Lab note: Ac-RAGPLEWLAEKYEG (linker 6-13 via 1,5‑diaminopentane) [(i+7)D] gave fold potency reduction, IC50 (BP1-01)/IC50 (mut) of 7.7

For the next question, use this binder.
Lab note: Ac-CRAGPLQELCEKYAE (disulfide 1-10 (inferred); linker 8-15 via 1,5‑diaminopentane) [(i+7)A] gave fold potency reduction, IC50 (BP1-01)/IC50 (mut) of 40
